Please provide measured MIC for the entries that follow.
Test system: Streptococcus pyogenes 801 (SPY 801)
Test: Minimum Inhibitory Concentration (MIC) determination, agar with 5% sheep blood
Assay type: cell-based
Settings: Mueller Hinton agar containing 5% sheep blood
Give bare numbers, in µg/mL.

Reference set (7 entries):
CS(=O)(=O)OC[C@H]1CN(c2ccc(N3CCC(=O)CC3)c(F)c2)C(=O)O1 [Example 168] = 4
CC(=O)NC[C@H]1CN(c2ccc(N3CCC4(CC3)COCCO4)c(F)c2)C(=O)O1 [Example 160] = 4
CC(=O)NC[C@H]1CN(c2ccc(N3CCC4(CC3)SCCN4C)c(F)c2)C(=O)O1 [Example 113] = 2
CC(=O)NC[C@H]1CN(c2cc(F)c(N3CCC(O)(CN=[N+]=[N-])CC3)c(F)c2)C(=O)O1 [Example 186] = 1
C=CCC1(O)CCN(c2ccc(N3C[C@H](COS(C)(=O)=O)OC3=O)cc2F)CC1 [Example 41] = 16
CC(=O)NC[C@H]1CN(c2ccc(N3CCC4(CC3)CC4C#N)c(F)c2)C(=O)O1 (mixture of isomers) [Example 97] = 2
COCC1(F)CCN(c2ccc(N3C[C@H](CNC(C)=O)OC3=O)cc2F)CC1 [Example 10] = 2

Here is the next item to consider.
Indicate the recorded MIC value for this compound: CC(=O)NC[C@H]1CN(c2ccc(N3CCC(F)(F)CC3)c(F)c2)C(=O)O1 [Example 16] 2
